Test System: ERK5 (activated catalytic domain) (Homo sapiens, UniProt Q13164)
Construct: purchased CarnaBiosciences 04-146
Sequence (Q13164 55-347 limits assumed): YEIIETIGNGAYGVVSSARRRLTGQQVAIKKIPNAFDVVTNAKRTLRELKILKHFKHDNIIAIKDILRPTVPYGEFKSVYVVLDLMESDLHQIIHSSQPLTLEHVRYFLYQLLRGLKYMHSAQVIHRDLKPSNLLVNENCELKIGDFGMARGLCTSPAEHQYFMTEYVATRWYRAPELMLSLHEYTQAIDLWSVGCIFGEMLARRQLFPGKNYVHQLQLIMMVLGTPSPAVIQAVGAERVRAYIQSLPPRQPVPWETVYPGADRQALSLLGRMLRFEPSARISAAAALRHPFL
Test: Cell-Free Assay of ERK5 Inhibition (Time-Resolved FRET, 4EBP1 peptide phosphorylation)
Assay type: biochemical
Conditions: ERK5 catalytic domain 4 nM, 1 mM ATP, 1 μM biotinylated 4EBP1 peptide, 30 min at 37° C.; mean where repeated; read-out: Cell-free assay (IC50 in nM)
Measured Attribute: IC50 (nM)
Kindly provide the numeric value in nM only, without the unit symbol.

Data request: Tell me reported IC50 for `CO[C@H]1CC[C@@H](c2cnc3[nH]c(=O)n(C4CCN(C(=O)c5ccc(OC(F)(F)F)cc5N)CC4)c3c2)CC1` , tested with ERK5 (activated catalytic domain) (Homo sapiens, UniProt Q13164).
Data returned: 643

Data request: Next entry: CN1CCC(Oc2cnc3[nH]c(=O)n(C4CCN(C(=O)c5ccc(OC(F)(F)F)cc5N)CC4)c3c2)C1 (racemic) [Example 6]
Data returned: 77

Data request: Next entry: `O=C(c1ccc(OC(F)(F)F)cc1)N1CCC(n2c(=O)[nH]c3ncc([C@H]4CC[C@H](O)CC4)cc32)CC1`
Data returned: 180

Data request: Next entry: `CC(C)(C)OC(=O)Nc1cc(OC(F)(F)F)ccc1C(=O)N1CCC(n2c(=O)[nH]c3ncc(Br)cc32)CC1`
Data returned: 30000

Data request: Next entry: Nc1cc(OC(F)(F)F)ccc1C(=O)N1CCC(n2c(=O)[nH]c3ncc(C4CCNC(=O)C4)cc32)CC1 (racemic)
Data returned: 684

Proceeding to the next compound to report its IC50.
Data request: Tell me reported IC50 for `CN1CCC(Oc2cnc3[nH]c(=O)n(C4CCN(C(=O)c5ccc(OC(F)(F)F)cc5N)CC4)c3c2)CC1` , tested with ERK5 (activated catalytic domain) (Homo sapiens, UniProt Q13164).
Data returned: 63

* * *

Test System: ERK5 (activated catalytic domain) (Homo sapiens)
Construct: purchased CarnaBiosciences 04-146
Test: Cell-Free Assay of ERK5 Inhibition (Time-Resolved FRET, 4EBP1 peptide phosphorylation)
Assay type: biochemical
Conditions: ERK5 catalytic domain 4 nM, 1 mM ATP, 1 μM biotinylated 4EBP1 peptide, 30 min at 37° C.; mean where repeated; read-out: Cell-free assay (IC50 in nM)
Measured Attribute: log10(IC50) (log10 of the value in nM)
log10 IC50, nM

Observe how each entry below is paired with its result.
Data request: // returns reported log10(IC50) for input `Nc1cc(OC(F)(F)F)ccc1C(=O)N1CCC(n2c(=O)[nH]c3ncc(C4CCOCC4)cc32)CC1`
Data returned: 1.68

Data request: Next entry: Nc1cc(OC(F)(F)F)ccc1C(=O)N1CCC(n2c(=O)[nH]c3ncc(C45CCCCC4C5)cc32)CC1 (racemic)
Data returned: 2.99

Data request: Next entry: `COCCc1cnc2[nH]c(=O)n(C3CCN(C(=O)c4ccc(OC(F)(F)F)cc4N)CC3)c2c1`
Data returned: 2.70

Data request: Next entry: `Nc1cc(OC(F)(F)F)ccc1C(=O)N1CCC(n2c(=O)[nH]c3ncc(C4CCN(CC(F)(F)F)CC4)cc32)CC1`
Data returned: 2.61

Data request: Next entry: O=C(c1ccc(OC(F)(F)F)cc1)N1CCC(n2c(=O)[nH]c3ncc(OC4CCOC4)cc32)CC1 (racemic)
Data returned: 2.63

Continuing:
Data request: // returns reported log10(IC50) for input `Nc1cc(OC(F)(F)F)ccc1C(=O)N1CCC(n2c(=O)[nH]c3ncc(C4CCC(F)(F)CC4)cc32)CC1`
Data returned: 2.84

Data request: Next entry: Nc1cc(OC(F)(F)F)ccc1C(=O)N1CCC(n2c(=O)[nH]c3ncc(C4CCCOC4)cc32)CC1 (racemic)
Data returned: 2.46

Data request: Next entry: CN1CCC(Oc2cnc3[nH]c(=O)n(C4CCN(C(=O)c5ccc(OC(F)(F)F)cc5N)CC4)c3c2)C1 (single isomer, unassigned; isomer 2) [Example 48]
Data returned: 1.89

Data request: Next entry: `Nc1cc(OC(F)(F)F)ccc1C(=O)N1CCC(n2c(=O)[nH]c3ncc(N4CCO[C@@H](CO)C4)cc32)CC1`
Data returned: 2.35

Data request: Next entry: `O=C(c1ccc(OC(F)(F)F)cc1)N1CCC(n2c(=O)[nH]c3ncc(OC4CCOCC4)cc32)CC1`
Data returned: 2.13

Data request: Next entry: `O=C(c1ccc(OC(F)(F)F)cc1)N1CCC(n2c(=O)[nH]c3ncc(C4CCOCC4)cc32)CC1`
Data returned: 2.75

Data request: Next entry: `Nc1cc(OC(F)(F)F)ccc1C(=O)N1CCC(n2c(=O)[nH]c3ncc(C45CC(C(F)(F)F)(C4)C5)cc32)CC1`
Data returned: 4.18

Data request: Next entry: `O=C(c1ccc(OC(F)(F)F)cc1)N1CCC(n2c(=O)[nH]c3ncc(N4CCO[C@@H](CO)C4)cc32)CC1`
Data returned: 3.02

Data request: Next entry: `Nc1cc(OC(F)(F)F)ccc1C(=O)N1CCC(n2c(=O)[nH]c3ncc(C4CCCCC4)cc32)CC1`
Data returned: 2.95

Data request: Next entry: `Nc1cc(OC(F)(F)F)ccc1C(=O)N1CCC(n2c(=O)[nH]c3ncc(OC4CCOCC4)cc32)CC1`
Data returned: 1.46

Data request: Next entry: `Nc1cc(OC(F)(F)F)ccc1C(=O)N1CCC(n2c(=O)[nH]c3ncc(CC4CCOCC4)cc32)CC1`
Data returned: 2.07

Data request: Next entry: CN1CCC(Oc2cnc3[nH]c(=O)n(C4CCN(C(=O)c5ccc(OC(F)(F)F)cc5)CC4)c3c2)C1 (racemic)
Data returned: 2.46
